test system: SEM cells; assay: cell viability relative to DMSO control; higher = less cytotoxic; settings: RPMI 5 mM glucose + 10% dialyzed FBS; 48 h; 1.71 µM
observation-type: cell viability

Check out these entries, answers already filled in.
1) COc1cccc(N(C)C(=S)Oc2ccc3c(c2)CCCC3)n1    97.5%
2) CCOc1cc(C(=O)Nc2ccc(Cl)c(-c3nc4ccccc4[nH]3)c2)cc(OCC)c1OCC    86.6%
3) O=C(Nc1nc2cccc(-c3ccc(CN4CC[S+](=O)([O-])CC4)cc3)n2n1)C1CC1    124%
4) OC[C@H]1OC(O)C[C@@H](O)[C@@H]1O (stereo partly drawn)    120%
5) COc1cc(N2CCC(N3CCN(C)CC3)CC2)ccc1Nc1ncc(Cl)c(Nc2ccccc2[S+](=O)([O-])C(C)C)n1    17.8%

Task: Consider the molecule "COCC(=O)NC/C=C/c1ccc2ncnc(Nc3ccc(Oc4ccc(C)nc4)c(C)c3)c2c1" . State its measured cell viability.
Result: 91%

Task: Consider the molecule "CN(C[C@@H]1COCCO1)[S+]([O-])(=O)NC2=CC3=C(C=C2)\C=C/C4=C(C=C(C=N4)C5=C[N](C)N=C5)C3=O" . State its measured cell viability.
Result: 38.5%

Task: Consider the molecule Clc1ccc(C(c2ccc(Cl)cc2)[n+]2ccn(CC(OCc3ccc(Cl)cc3Cl)c3ccc(Cl)cc3Cl)c2)cc1 (stereo not drawn) . State its measured cell viability.
Result: 115%
